target: T1, human CD115 extracellular domain (Sino Biological 10161-H08H) (human, UniProt P07333 20-517); test: ELISA, blocking of biotin-CSF-1 binding to coated hu-CD115
T1 construct: extracellular domain; bought recombinant protein; also called huCD115; hu-CD115
Readout: pIC50
Answers are plain numbers, as −log10 of the molar value.

Find the measured pIC50 of CCK423A-IgG1κ (fully human) (antibody, V domains shown, also called Human IgG1κ; CCK423A-I IgG1κ) VH: QVQLEQSGAEVKRPGASVKVSCKASGYTFTGYYMHWVRQAPGQGLEWMGWINPNRGDTNYAQKFQGRVTMTRDTSISTAYMELSRLRSDDTAVYYCARDLEGGGPFDYWGQGTLVTVSS VL: DIVMTQTPLSLPVTPGEPASISCRSSQSLLDSDDGNTYLDWYLQKPGQSPQLLIYTLSYRASGVPDRFSGSGSGTDFTLKISRVEAEDVGVYYCMQRIEFPSTFGQGTRLEIK and report it. 9.84
